Biological target: PABP 2-3 mt (human, UniProt P11940 1-175+=[…]+190-636, internal_change)
Assay: EMSA
pKd: −log10 of the molar value.
ASSAY_ENDPOINT: pKd

>>> observed_value("AAAAAAAAAAAAAAAAAAAAAAAAA (ssRNA) [poly(A)25 RNA]")
"~8.16"
